Tested on: SK-OV-3 ovarian
testDescription: NCI-60 one-dose screen, 48 h
testContext: 10 µM unless noted
About 83,000 compounds went through this panel and 20% of them were active in at least one assay; those are over-represented in the sample as a whole. Activity calls are given as the source filed them. The calls were made as follows: active = growth percent below 10; inactive = the rest.
Labels: yes = active, no = inactive

- compound: "Clc1cccc(-c2cc(-c3ccc4c(c3)OCCO4)[nH]n2)c1"
  qualitativeLabel: "no"
- compound: "Oc1ccccc1/C=N/NC(=S)NC1CC2C=CC1C2 (stereo not given)"
  qualitativeLabel: "no"
- compound: "CCCOC(=O)n1cccc1"
  qualitativeLabel: "no"
- compound: "COc1cc(Nc2nc(N[C@H]3CCCC[C@@H]3N)nc3cc[nH]c(=O)c23)cc(OC)c1"
  qualitativeLabel: "no"
- compound: "O=C(NNC(=O)N1c2ccccc2C=Cc2ccccc21)c1ccc2ccccc2c1"
  qualitativeLabel: "no"
- compound: "COc1ccc(-c2nc(N3CCCC3=O)sc2Br)cc1OC"
  qualitativeLabel: "no"
- compound: "COc1ccc(-c2cc(-c3ccccc3)nc(SCCCC(=O)NO)n2)cc1OC"
  qualitativeLabel: "yes"
- compound: "CCOC(=O)c1ccc2c(c1)nc(-c1ccc(OCc3ccccc3)c(OC)c1)n2-c1cc(C(C)(C)C)[nH]n1"
  qualitativeLabel: "no"
- compound: "COc1ccc(C2C=C(c3ccc(OC)c(OC)c3)N=C3SC=C(C)N32)c(Br)c1 (stereo not given)"
  qualitativeLabel: "no"
- compound: "O=C(Nc1cccc(-n2cc(-c3ccncc3)c(-c3ccc(Cl)c(O)c3)n2)c1)c1ccccc1"
  qualitativeLabel: "no"

====

Below is a list of entries, each paired with its recorded growth value.
Tested on: SK-MEL-28 melanoma
testDescription: NCI-60 one-dose screen, 48 h (100 = growth as untreated, 0 = no growth, -100 = all killed)
testContext: 10 µM unless noted
The panel holds about 83,000 compounds, 20% with a hit somewhere; the sample as a whole holds those more often.

- compound: "COc1ccc(CCNC2=CC(=O)CCC2)cc1OC"
  targetDesc: "SK-MEL-28 melanoma"
  growth (%): 111
- compound: "CC(C)CSc1nc(NN)c(C#N)c(-c2ccc(F)cc2)n1"
  targetDesc: "SK-MEL-28 melanoma"
  growth (%): 85
- compound: "COc1cccc(-c2cc3c(O)cc(C#N)cc3[nH]2)c1"
  targetDesc: "SK-MEL-28 melanoma"
  growth (%): 97.8
- compound: "Nc1nc(-c2ccccc2)c(CCCOc2ccc(NC(=O)CBr)cc2)c(=O)[nH]1"
  targetDesc: "SK-MEL-28 melanoma"
  growth (%): 104
- compound: "C=C1CCC2C3(C)COC(C)(C)OC3CCC2(C)C1C/C=C1/C(=O)OCC1Oc1ccccc1OC (stereo not given)"
  targetDesc: "SK-MEL-28 melanoma"
  growth (%): 101
- compound: "CC(C)(C)n1cc(-c2ccnc(NCCNS(=O)(=O)c3ccc(Cl)cc3)c2)c(-c2cccc(O)c2)n1"
  targetDesc: "SK-MEL-28 melanoma"
  growth (%): 63.3
- compound: "CCO/C=N/C1=C(C#N)C(c2ccc(Cl)cc2)c2c(c3ccc(C)cc3[nH]c2=O)O1 (stereo not given)"
  targetDesc: "SK-MEL-28 melanoma"
  growth (%): 101
- compound: "CCCCCCCCCCCCCCCCCCNC(=O)[C@H]1CSC(c2cccs2)N1 (stereo not given in full)"
  targetDesc: "SK-MEL-28 melanoma"
  growth (%): -89.7
- compound: "COc1ccc(-c2c(N)n[nH]c2-c2cc3c(c(OC)c2OC)OCO3)cc1"
  targetDesc: "SK-MEL-28 melanoma"
  growth (%): 104
- compound: "CN(C[C@H]1Cc2c(cccc2N2CCN(Cc3ccccn3)CC2)CN1)[C@H]1CCCc2cccnc21"
  targetDesc: "SK-MEL-28 melanoma"
  growth (%): 88.5
